# assayProcedure: Stability in rabbit liver microsome after 1 hr
# Format: ADME, Oryctolagus cuniculus
# conditionNotes: liver microsomes, read-out: Stability
A collection of molecules and their measured remaining at 1 h
testReadout: remaining at 1 h

INSERT INTO assay_data (molsmiles, testreadout, reading) VALUES
  ('CCC(=O)Nc1cc2c(NCc3ccc(OC)c(Cl)c3)ncnc2c(CCO)c1OC', 'remaining at 1 h', '> 80%'),
  ('CCCc1c(OC)c(NC(=O)C(F)(F)F)cc2c(NCc3ccc(OC)c(Cl)c3)ncnc12', 'remaining at 1 h', '> 80%');

----------
# assayProcedure: Permeability across human Caco-2 cells
# Type: ADME, cell-based
# conditionNotes: read-out: permeability
testReadout: Papp (×10⁻⁶ cm/s)

INSERT INTO assay_data (molsmiles, reading) VALUES
  ('CCC(=O)Nc1cc2c(NCc3ccc(OC)c(Cl)c3)ncnc2c(CCO)c1OC', 46.9),
  ('COc1ccc(CNc2ncnc3c(CCO)c(OC)c(NC(C)=O)cc23)cc1Cl', 17.3);
